# experimental-target: A2 receptor (Rattus norvegicus, UniProt P30543)
# Construct: corpus striatun (A2 receptor); from tissue; host or cells: rat corpus striatum membranes
# Sequence (P30543 whole entry): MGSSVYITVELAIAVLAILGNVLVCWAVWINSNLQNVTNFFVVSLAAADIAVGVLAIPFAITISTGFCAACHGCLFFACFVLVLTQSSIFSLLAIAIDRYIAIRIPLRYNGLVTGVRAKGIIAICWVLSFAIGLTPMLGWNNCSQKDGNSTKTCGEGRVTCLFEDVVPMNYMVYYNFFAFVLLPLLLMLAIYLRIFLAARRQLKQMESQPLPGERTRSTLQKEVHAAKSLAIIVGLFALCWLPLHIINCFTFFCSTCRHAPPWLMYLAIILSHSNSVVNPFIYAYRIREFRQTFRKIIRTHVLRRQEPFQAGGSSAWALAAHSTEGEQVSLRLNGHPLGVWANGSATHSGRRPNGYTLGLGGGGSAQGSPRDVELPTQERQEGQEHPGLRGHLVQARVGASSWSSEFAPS
# method-notes: A2 receptor antagonism (inhibition of 3H-NECA binding, rat corpus striatum membranes)
# conditions-used: in presence of 50 nM cyclopentyladenosine, read-out: A2 receptor (Ki, μM), binding-inhibition constant
Hi there, I'd appreciate the recorded Ki for every entry that follows.
Report the figure in µM without appending any unit label.

(Q) Data request, read-out Ki, for CCCn1c(=O)c2c(nn3cc[nH]c23)n(Cc2ccccc2)c1=O [compound 8]
(A) 0.26

(Q) Now the same for CCCn1c(=O)c2c(nn3c4c([nH]c23)CCCC4)n(Cc2ccccc2)c1=O [compound 19]
(A) 0.19

(Q) Now the same for CCCn1c(=O)c2c(nn3c(C)c(C)[nH]c23)n(Cc2ccccc2)c1=O [compound 16]
(A) 0.43

(Q) Now the same for CCCn1c(=O)c2c(nn3cc[nH]c23)n(CCc2ccccc2)c1=O [compound 13]
(A) 16

(Q) Now the same for CCCn1c(=O)c2c(nn3cc(-c4ccccc4OC)[nH]c23)n(Cc2ccccc2)c1=O [compound 23]
(A) 0.5

(Q) Now the same for CCCn1c(=O)c2c3n(nc2n(Cc2ccccc2)c1=O)CCN3 [compound 1]
(A) 3.3

(Q) Now the same for CCCn1c(=O)c2c(nn3cc[nH]c23)n(Cc2ccc(Cl)cc2)c1=O [compound 9]
(A) 0.37

----------
# experimental-target: A2 receptor (Rattus norvegicus, UniProt P30543)
# Construct: corpus striatun (A2 receptor); from tissue; host or cells: rat corpus striatum membranes
# method-notes: A2 receptor antagonism (inhibition of 3H-NECA binding, rat corpus striatum membranes)
# conditions-used: in presence of 50 nM cyclopentyladenosine, read-out: A2 receptor (Ki, μM), binding-inhibition constant
quantity: Ki (µM)
Report the figure in µM without appending any unit label.

(Q) Data request, read-out Ki, for `CCCCn1c(=O)[nH]c(=O)c2c3n(nc21)CCN3`
(A) 39

(Q) Now the same for `CCCCc1cn2nc3c(c(=O)n(CCC)c(=O)n3Cc3ccccc3)c2[nH]1`
(A) 0.35

(Q) Now the same for `CCCCn1c(=O)n(Cc2ccccc2)c(=O)c2c1nn1cc[nH]c21`
(A) 1.1

(Q) Now the same for `CCCn1c(=O)c2c(nn3cc(-c4cccc(OC)c4)[nH]c23)n(Cc2ccccc2)c1=O`
(A) 0.12

(Q) Now the same for `CCCn1c(=O)c2c3n(nc2n(Cc2cccc(Cl)c2)c1=O)CCN3`
(A) 4.2

(Q) Now the same for `CCCn1c(=O)c2c(nn3cc[nH]c23)n(Cc2cccc(Cl)c2)c1=O`
(A) 0.46
